// provenance: the supplement of paper PMC7877785

# assay_info: self-splicing fitness, log relative to wild type (ln ratio); higher = more splicing; Tetrahymena group I intron in knt gene, E. coli kanamycin selection, DiMSum; sequences stand for … in CUCUCU…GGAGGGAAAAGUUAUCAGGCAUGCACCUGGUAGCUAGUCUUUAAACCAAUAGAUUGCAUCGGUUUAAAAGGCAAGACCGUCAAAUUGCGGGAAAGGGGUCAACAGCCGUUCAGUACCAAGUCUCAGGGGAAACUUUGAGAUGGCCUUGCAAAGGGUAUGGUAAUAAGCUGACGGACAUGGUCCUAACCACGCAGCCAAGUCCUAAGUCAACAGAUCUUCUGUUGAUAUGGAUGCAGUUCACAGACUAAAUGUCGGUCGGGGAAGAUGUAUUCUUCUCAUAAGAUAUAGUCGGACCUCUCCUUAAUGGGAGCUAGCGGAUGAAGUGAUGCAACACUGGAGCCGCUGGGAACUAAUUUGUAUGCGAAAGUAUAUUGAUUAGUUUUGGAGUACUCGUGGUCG;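 also: selection with 25 µg/mL kanamycin versus none on LB agar overnight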
# condition_details: 37 °C
// classify(record): look up self-splicing fitness (ln) in ranges b0 (below -2), b1 (-2 to below -0.6), b2 (-0.6 or more)

Look over these answered cases.
sequence_text=AAUCAGCAAUAUUACGGCUC classification=b2
sequence_text=AACAAGCAAUAUUACGUGCC classification=b2
sequence_text=AUAUAGCAAUAUUACGCCUA classification=b2
sequence_text=AGUAAGCAAUAUUACGACAC classification=b1
sequence_text=CAUGAGCAAUAUUACGGCGA classification=b0

Task: Entry `AUCGAGCAAUAUUACGCAAA` belongs to which category?
Output: b0

Task: Moving on to `UCACAGCAAUAUUACGAUAC`
Output: b0

====

# assay_info: self-splicing fitness, log relative to wild type (ln ratio); higher = more splicing; Tetrahymena group I intron in knt gene, E. coli kanamycin selection, DiMSum; sequences stand for … in CUCUCU…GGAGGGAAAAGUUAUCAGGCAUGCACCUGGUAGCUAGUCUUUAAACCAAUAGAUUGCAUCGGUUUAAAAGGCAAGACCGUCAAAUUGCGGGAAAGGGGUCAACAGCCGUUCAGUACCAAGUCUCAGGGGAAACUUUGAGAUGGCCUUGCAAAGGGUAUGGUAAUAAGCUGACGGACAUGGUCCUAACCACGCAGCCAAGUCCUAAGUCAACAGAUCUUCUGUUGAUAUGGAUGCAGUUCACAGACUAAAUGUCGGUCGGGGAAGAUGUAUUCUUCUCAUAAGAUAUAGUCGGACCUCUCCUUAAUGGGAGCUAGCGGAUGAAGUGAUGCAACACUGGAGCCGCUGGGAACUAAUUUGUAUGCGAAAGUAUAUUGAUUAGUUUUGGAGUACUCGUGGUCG
# condition_details: 37 °C
readout_type: self-splicing fitness (ln)

sequence_text=UUGCAGCAAUAUUACGGUGC recorded_result=-2.67
sequence_text=UUGUAGCAAUAUUACGUCAU recorded_result=-1.63
sequence_text=AAUUAGCAAUAUUACGGACG recorded_result=0.266

Provide self-splicing fitness (ln) values for the following items, in order.
1. UUAUAGCAAUAUUACGUUGU
2. GCAAAGCAAUAUUACGCGCC
3. UUUGAGCAAUAUUACGGGUC
4. CAAAAGCAAUAUUACGGCAC
5. GGUUAGCAAUAUUACGCUUG

Output:
[-2.38, -2.09, -3.77, -2.09, -1.82]

Look up self-splicing fitness (ln) for the entries below, preserving their order.
1. CUCAAGCAAUAUUACGGCUG
2. AACUAGCAAUAUUACGCGAG
3. CAUGAGCAAUAUUACGGGUG
4. GCUGAGCAAUAUUACGAAAU
5. CUUGAGCAAUAUUACGUAGC

Output:
[-2.57, -0.501, -2.43, -2.43, -2.4]

Each sequence below has a recorded value; state its self-splicing fitness (ln).
1. AAAAAGCAAUAUUACGGUAU
2. AGGAAGCAAUAUUACGCGAG
3. GUGUAGCAAUAUUACGGUCC
4. GCUAAGCAAUAUUACGGGCU
5. AAGGAGCAAUAUUACGCAAA

Output:
1. -0.966
2. -1.31
3. -0.716
4. -2.23
5. -2.7

Hey, quick one: what's self-splicing fitness (ln) for each of these?
1. GUAAAGCAAUAUUACGUACG
2. AACUAGCAAUAUUACGCCUG
3. UACCAGCAAUAUUACGUGUG

Output:
1. -0.015
2. -1.43
3. -0.527

List the reported self-splicing fitness (ln) of each sequence below.
1. CUUGAGCAAUAUUACGGAAG
2. CCACAGCAAUAUUACGGACU

Output:
-2.23
-2.95

Hey, quick one: what's self-splicing fitness (ln) for each of these?
1. CAGCAGCAAUAUUACGUAGG
2. UGAUAGCAAUAUUACGCGAA
3. GAGUAGCAAUAUUACGUGGA
4. CCGAAGCAAUAUUACGAAUG
5. GUUUAGCAAUAUUACGGCUU
6. CGACAGCAAUAUUACGAAGG
7. CUGUAGCAAUAUUACGGAGG
8. GGGGAGCAAUAUUACGGCGU

Output:
[-0.331, -1.49, -2.52, -0.208, -0.894, -0.848, -2.64, -1.08]

Working through the 3 sequences below one at a time, give self-splicing fitness (ln) for each.
1. UUGUAGCAAUAUUACGGGAA
2. GGUGAGCAAUAUUACGUUGA
3. AAUCAGCAAUAUUACGACCC

Output:
-1.32
-1.05
-0.615

====

# assay_info: self-splicing fitness, log relative to wild type (ln ratio); higher = more splicing; Tetrahymena group I intron in knt gene, E. coli kanamycin selection, DiMSum; sequences stand for … in CUCUCU…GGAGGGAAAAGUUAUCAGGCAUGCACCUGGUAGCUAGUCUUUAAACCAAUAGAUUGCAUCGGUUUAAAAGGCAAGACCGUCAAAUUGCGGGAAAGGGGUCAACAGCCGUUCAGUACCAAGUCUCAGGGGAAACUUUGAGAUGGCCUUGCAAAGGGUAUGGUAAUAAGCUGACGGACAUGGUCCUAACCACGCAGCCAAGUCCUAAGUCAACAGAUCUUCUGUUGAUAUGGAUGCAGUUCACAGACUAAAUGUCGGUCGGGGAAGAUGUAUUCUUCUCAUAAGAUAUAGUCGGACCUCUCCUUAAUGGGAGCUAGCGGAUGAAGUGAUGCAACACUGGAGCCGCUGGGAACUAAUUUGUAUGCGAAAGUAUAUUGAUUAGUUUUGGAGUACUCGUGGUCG
# condition_details: 37 °C
readout_type: self-splicing fitness (ln)
One number for each entry.

Please look at the items below and tell me self-splicing fitness (ln) for each one, in order.
1. CGUCAGCAAUAUUACGUACA
2. GUAGAGCAAUAUUACGCACA

Output:
[0.154, -0.117]

====

# assay_info: self-splicing fitness, log relative to wild type (ln ratio); higher = more splicing; Tetrahymena group I intron in knt gene, E. coli kanamycin selection, DiMSum; sequences stand for … in CUCUCU…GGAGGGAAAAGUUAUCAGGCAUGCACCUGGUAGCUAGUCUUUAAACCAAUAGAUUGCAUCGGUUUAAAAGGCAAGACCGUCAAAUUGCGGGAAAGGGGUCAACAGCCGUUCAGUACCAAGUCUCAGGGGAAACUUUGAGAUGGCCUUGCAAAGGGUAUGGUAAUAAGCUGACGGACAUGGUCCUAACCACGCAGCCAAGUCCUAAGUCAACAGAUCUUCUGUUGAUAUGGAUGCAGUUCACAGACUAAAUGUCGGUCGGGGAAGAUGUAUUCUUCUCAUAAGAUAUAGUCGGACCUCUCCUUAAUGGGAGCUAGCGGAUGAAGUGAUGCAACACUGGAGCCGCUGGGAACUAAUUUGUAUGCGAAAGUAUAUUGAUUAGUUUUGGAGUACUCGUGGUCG
# condition_details: 37 °C
Kindly return condition met if reported self-splicing fitness (ln) is no lower than -0.9; return condition not met if it is lower.

Task: Item `ACACAGCAAUAUUACGACGG` with self-splicing fitness (ln) of -0.9 or above?
Output: condition met

Task: // next record `CGACAGCAAUAUUACGAUAC`
Output: condition not met

Task: Again, but for `GUCCAGCAAUAUUACGAGCA`
Output: condition not met

Task: Next sequence up: `GCUGAGCAAUAUUACGAUAA`
Output: condition not met

====

# assay_info: self-splicing fitness, log relative to wild type (ln ratio); higher = more splicing; Tetrahymena group I intron in knt gene, E. coli kanamycin selection, DiMSum; sequences stand for … in CUCUCU…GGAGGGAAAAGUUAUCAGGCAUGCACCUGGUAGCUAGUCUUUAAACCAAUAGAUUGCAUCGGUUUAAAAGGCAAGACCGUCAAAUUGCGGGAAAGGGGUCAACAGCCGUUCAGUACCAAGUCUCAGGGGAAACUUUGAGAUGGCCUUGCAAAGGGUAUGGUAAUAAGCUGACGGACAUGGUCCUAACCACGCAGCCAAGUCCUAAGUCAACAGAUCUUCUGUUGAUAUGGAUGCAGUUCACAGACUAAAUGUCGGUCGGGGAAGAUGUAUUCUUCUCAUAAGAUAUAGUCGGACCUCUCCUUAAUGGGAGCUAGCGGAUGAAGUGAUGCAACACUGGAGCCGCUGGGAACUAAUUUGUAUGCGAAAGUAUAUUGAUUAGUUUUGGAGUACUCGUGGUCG
# condition_details: 37 °C
readout_type: self-splicing fitness (ln)
Answers are plain numbers.

Please look at the items below and tell me self-splicing fitness (ln) for each one, in order.
1. UGCGAGCAAUAUUACGCGCG
2. UUAGAGCAAUAUUACGUUUU
3. GCACAGCAAUAUUACGCAAA

Output:
1. -2.72
2. -2.3
3. -0.898

Could I get self-splicing fitness (ln) for every one of these entries?
1. UCGCAGCAAUAUUACGCUCA
2. AUAGAGCAAUAUUACGCAAG
3. ACUAAGCAAUAUUACGCUCU
4. UACCAGCAAUAUUACGUUAG
5. AUCCAGCAAUAUUACGCGGC
6. CGCCAGCAAUAUUACGUGCU
7. UCCGAGCAAUAUUACGCAGA

Output:
-0.529
-1.24
-0.566
-1.16
-4.06
-3.23
-2.49
